- tested-system: T1, CTNI quality control recombinant protein (PK2-CTNI-1, 170120, produced by the applicant) (human, UniProt P19429 2-210, limits assumed)
- T1 construct: also called cardiac troponin I
- T1 sequence (P19429 2-210 limits assumed): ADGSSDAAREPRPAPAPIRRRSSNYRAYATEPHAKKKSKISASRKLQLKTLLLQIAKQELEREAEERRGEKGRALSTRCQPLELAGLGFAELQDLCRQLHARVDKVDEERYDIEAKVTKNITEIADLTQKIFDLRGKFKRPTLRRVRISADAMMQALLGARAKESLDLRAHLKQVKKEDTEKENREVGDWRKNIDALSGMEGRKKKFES
- procedure-summary: indirect ELISA, cTnI coated 1 ug/ml, antibody 1000 ug/ml

[
  {
    "binder": "Mutation 5 (antibody, V domains shown, built as for Mutation 1) VH: EVQLQQSGAELVKPGASVKLSCTASGFNLKDYFMHWMKQRTEQGLDWIGRIEPEDAETRYAPEFQGKATITADTSSNTAYLQLSTLTSEDTAVYYCARYYSSYIPFVYWGQGTLVTASA VL: DVVMTQTPLSLSVSLGDQASISCRSSQSIIYSNKHTYLHWYLQKPGQSPKLLIFQISQRFSGVPDRFSGSGSGTDFTLKINRVEAEDLGVYFCSNSTHLPFTFGSGTKLEIKR",
    "OD 450 nm (reference 630 nm), OD": 2.2
  }
]

Reference source for all entries: patent US20210340231A1
